All values here come from patent US8546338B2.

assay: Gelation experiments: inversion test for self-supporting hydrogels; format: physicochemical; conditions: DPA solution in water mixed 1:1 with DMEM, no calcium added
PARAMETER: Gelation (self-supporting gel on inversion), DMEM

# COMPOUND, RECORDED VALUE
records = [
    ("CCCCCCCCCCCCCCCC(=O)NC(C(=O)NCC(=O)N[C@@H](Cc1ccccc1)C(=O)NCC(=O)N[C@@H](Cc1ccccc1)C(=O)NCC(=O)N[C@@H](Cc1ccccc1)C(=O)NCC(=O)NCC(=O)N[C@@H](CC(N)=O)C(=O)N[C@@H](CO)C(=O)O)C(=O)NCC(=O)N[C@@H](Cc1ccccc1)C(=O)NCC(=O)N[C@@H](Cc1ccccc1)C(=O)NCC(=O)N[C@@H](Cc1ccccc1)C(=O)NCC(=O)NCC(=O)N[C@@H](CC(N)=O)C(=O)N[C@@H](CO)C(=O)O [Gly-Phe-Gly-Phe-Gly-Phe-Gly-Gly-Asn-Ser]", "Yes,"),
    ("CCCCCCCCCCCCCCCC(=O)NC(C(=O)NCC(=O)N[C@@H](Cc1ccccc1)C(=O)NCC(=O)N[C@@H](Cc1ccccc1)C(=O)NCC(=O)N[C@@H](Cc1ccccc1)C(=O)NCC(=O)N[C@@H](CC(N)=O)C(=O)NCC(=O)N[C@@H](CO)C(=O)O)C(=O)NCC(=O)N[C@@H](Cc1ccccc1)C(=O)NCC(=O)N[C@@H](Cc1ccccc1)C(=O)NCC(=O)N[C@@H](Cc1ccccc1)C(=O)NCC(=O)N[C@@H](CC(N)=O)C(=O)NCC(=O)N[C@@H](CO)C(=O)O [Gly-Phe-Gly-Phe-Gly-Phe-Gly-Asn-Gly-Ser]", "Yes,"),
    ("CCCCCCCCCCCCCCCC(=O)NC(C(=O)NCC(=O)N[C@@H](Cc1ccccc1)C(=O)NCC(=O)N[C@@H](Cc1ccccc1)C(=O)NCC(=O)N[C@@H](Cc1ccccc1)C(=O)NCC(=O)N[C@@H](CC(N)=O)C(=O)N[C@@H](CC(N)=O)C(=O)N[C@@H](CO)C(=O)O)C(=O)NCC(=O)N[C@@H](Cc1ccccc1)C(=O)NCC(=O)N[C@@H](Cc1ccccc1)C(=O)NCC(=O)N[C@@H](Cc1ccccc1)C(=O)NCC(=O)N[C@@H](CC(N)=O)C(=O)N[C@@H](CC(N)=O)C(=O)N[C@@H](CO)C(=O)O [Gly-Phe-Gly-Phe-Gly-Phe-Gly-Asn-Asn-Ser]", "Yes,"),
]

---

experiment: Gelation experiments: inversion test for self-supporting hydrogels; assay type: physicochemical; details: in water; final concentrations 1, 2 and 4 weight percent tested
PARAMETER: Gelation (self-supporting gel on inversion), Water

# COMPOUND, RECORDED VALUE
rows = [
    ("CCCCCCCCCCCCCCCC(=O)NC(C(=O)NCC(=O)N[C@@H](Cc1ccccc1)C(=O)NCC(=O)N[C@@H](Cc1ccccc1)C(=O)NCC(=O)N[C@@H](Cc1ccccc1)C(=O)NCC(=O)N[C@@H](CC(N)=O)C(=O)N[C@@H](CC(N)=O)C(=O)N[C@@H](CO)C(=O)O)C(=O)NCC(=O)N[C@@H](Cc1ccccc1)C(=O)NCC(=O)N[C@@H](Cc1ccccc1)C(=O)NCC(=O)N[C@@H](Cc1ccccc1)C(=O)NCC(=O)N[C@@H](CC(N)=O)C(=O)N[C@@H](CC(N)=O)C(=O)N[C@@H](CO)C(=O)O [Gly-Phe-Gly-Phe-Gly-Phe-Gly-Asn-Asn-Ser]", "Yes,"),
    ("CCCCCCCCCCCCCCCC(=O)NC(C(=O)NCC(=O)N[C@H](C(=O)N[C@@H](C)C(=O)N[C@H](C(=O)N[C@@H](C)C(=O)N[C@H](C(=O)N[C@@H](C)C(=O)N[C@@H](CCC(=O)O)C(=O)NCC(=O)N[C@@H](CCC(=O)O)C(=O)O)C(C)C)C(C)C)C(C)C)C(=O)NCC(=O)N[C@H](C(=O)N[C@@H](C)C(=O)N[C@H](C(=O)N[C@@H](C)C(=O)N[C@H](C(=O)N[C@@H](C)C(=O)N[C@@H](CCC(=O)O)C(=O)NCC(=O)N[C@@H](CCC(=O)O)C(=O)O)C(C)C)C(C)C)C(C)C [Gly-Val-Ala-Val-Ala-Val-Ala-Glu-Gly-Glu]", "No"),
    ("CCCCCCCCCCCCCCCC(=O)NC(C(=O)NCC(=O)N[C@@H](Cc1ccccc1)C(=O)NCC(=O)N[C@@H](Cc1ccccc1)C(=O)NCC(=O)N[C@@H](Cc1ccccc1)C(=O)NCC(=O)NCC(=O)N[C@@H](CCC(N)=O)C(=O)N[C@@H](CO)C(=O)O)C(=O)NCC(=O)N[C@@H](Cc1ccccc1)C(=O)NCC(=O)N[C@@H](Cc1ccccc1)C(=O)NCC(=O)N[C@@H](Cc1ccccc1)C(=O)NCC(=O)NCC(=O)N[C@@H](CCC(N)=O)C(=O)N[C@@H](CO)C(=O)O [Gly-Phe-Gly-Phe-Gly-Phe-Gly-Gly-Gln-Ser]", "No"),
    ("CCCCCCCCCCCCCCCC(=O)NC(C(=O)NCC(=O)N[C@@H](Cc1ccccc1)C(=O)NCC(=O)N[C@@H](Cc1ccccc1)C(=O)NCC(=O)N[C@@H](Cc1ccccc1)C(=O)NCC(=O)NCC(=O)N[C@@H](CC(N)=O)C(=O)N[C@@H](CO)C(=O)O)C(=O)NCC(=O)N[C@@H](Cc1ccccc1)C(=O)NCC(=O)N[C@@H](Cc1ccccc1)C(=O)NCC(=O)N[C@@H](Cc1ccccc1)C(=O)NCC(=O)NCC(=O)N[C@@H](CC(N)=O)C(=O)N[C@@H](CO)C(=O)O [Gly-Phe-Gly-Phe-Gly-Phe-Gly-Gly-Asn-Ser]", "No"),
]

---

assay: Gelation experiments: inversion test for self-supporting hydrogels; format: physicochemical; conditions: in water; final concentrations 1, 2 and 4 weight percent tested
Where a SMILES comes first, the peptide text is derived from it. The star is where a group is joined. Palmitoyl = CCCCCCCCCCCCCCCC(=O)*
PARAMETER: Gelation (self-supporting gel on inversion), Water

# COMPOUND, RECORDED VALUE
rows = [
    ("CCCCCCCCCCCCCCCC(=O)NCC(=O)N[C@@H](Cc1ccccc1)C(=O)NCC(=O)N[C@@H](Cc1ccccc1)C(=O)NCC(=O)N[C@@H](Cc1ccccc1)C(=O)NCC(=O)N[C@@H](CCC(N)=O)C(=O)N[C@@H](CCC(N)=O)C(=O)N[C@@H](CO)C(=O)O [reference compound] (Palmitoyl-GFGFGFGQQS-OH)", "No"),
    ("CCCCCCCCCCCCCCCC(=O)NC(C(=O)NCC(=O)N[C@@H](Cc1ccccc1)C(=O)NCC(=O)N[C@@H](Cc1ccccc1)C(=O)NCC(=O)N[C@@H](Cc1ccccc1)C(=O)NCC(=O)N[C@@H](CCC(=O)O)C(=O)NCC(=O)N[C@@H](CCC(=O)O)C(=O)O)C(=O)NCC(=O)N[C@@H](Cc1ccccc1)C(=O)NCC(=O)N[C@@H](Cc1ccccc1)C(=O)NCC(=O)N[C@@H](Cc1ccccc1)C(=O)NCC(=O)N[C@@H](CCC(=O)O)C(=O)NCC(=O)N[C@@H](CCC(=O)O)C(=O)O [Gly-Phe-Gly-Phe-Gly-Phe-Gly-Glu-Gly-Glu]", "No"),
    ("CCCCCCCCCCCCCCCC(=O)NC(C(=O)NCC(=O)N[C@@H](Cc1ccccc1)C(=O)NCC(=O)N[C@@H](Cc1ccccc1)C(=O)NCC(=O)N[C@@H](Cc1ccccc1)C(=O)NCC(=O)N[C@@H](CC(N)=O)C(=O)NCC(=O)N[C@@H](CO)C(=O)O)C(=O)NCC(=O)N[C@@H](Cc1ccccc1)C(=O)NCC(=O)N[C@@H](Cc1ccccc1)C(=O)NCC(=O)N[C@@H](Cc1ccccc1)C(=O)NCC(=O)N[C@@H](CC(N)=O)C(=O)NCC(=O)N[C@@H](CO)C(=O)O [Gly-Phe-Gly-Phe-Gly-Phe-Gly-Asn-Gly-Ser]", "No"),
]

---

assay: Cell viability of encapsulated hUTCs in DPA gels (Live/Dead); assay type: cell-based, human; settings: human, human umbilical cord cells (hUTCs) encapsulated in DPA gel; 2% DPA, 100,000 cells, calcium chloride added, after 7 days of culture, Live/Dead; read-out: Viability of hUTC cells in the gels
PARAMETER: viability at 168 h, 2 %

QUERY: Tell us which viability at 168 h, 2 % value is on record for "CCCCCCCCCCCCCCCC(=O)NC(C(=O)NCC(=O)N[C@H](C(=O)N[C@@H](C)C(=O)N[C@H](C(=O)N[C@@H](C)C(=O)N[C@H](C(=O)N[C@@H](C)C(=O)N[C@@H](CCC(=O)O)C(=O)NCC(=O)N[C@@H](CCC(=O)O)C(=O)O)C(C)C)C(C)C)C(C)C)C(=O)NCC(=O)N[C@H](C(=O)N[C@@H](C)C(=O)N[C@H](C(=O)N[C@@H](C)C(=O)N[C@H](C(=O)N[C@@H](C)C(=O)N[C@@H](CCC(=O)O)C(=O)NCC(=O)N[C@@H](CCC(=O)O)C(=O)O)C(C)C)C(C)C)C(C)C"
RESULT: > 95%
